- tested-on: UniProt P08913
- Sequence (P08913 1-465): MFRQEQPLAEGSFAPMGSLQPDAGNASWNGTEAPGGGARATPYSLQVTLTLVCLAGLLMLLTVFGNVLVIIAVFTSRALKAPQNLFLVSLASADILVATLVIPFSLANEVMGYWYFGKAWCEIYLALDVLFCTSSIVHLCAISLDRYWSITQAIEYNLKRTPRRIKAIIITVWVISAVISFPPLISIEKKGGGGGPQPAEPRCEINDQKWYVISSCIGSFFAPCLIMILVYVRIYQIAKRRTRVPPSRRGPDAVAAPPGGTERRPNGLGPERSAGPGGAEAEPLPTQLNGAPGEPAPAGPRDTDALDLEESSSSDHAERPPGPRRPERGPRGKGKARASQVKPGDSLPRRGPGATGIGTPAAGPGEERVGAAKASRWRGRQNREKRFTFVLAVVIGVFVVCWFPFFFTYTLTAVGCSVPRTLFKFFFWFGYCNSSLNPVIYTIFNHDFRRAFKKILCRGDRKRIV
- assay-remarks: Radioligand binding, adrenergic α2A (Protocol Group B)
- Parameters: purchased Milipore (Millipore)
- condition-details: Protocol Group B; estimated Ki
- Method: To evaluate the activity of compounds in radioligand binding assays, Human adrenergic α2A receptor obtained from recombinant cell membrane from Milipore. Binding experiments were carried out in Tris-HCl buffer (50 mM Tris-HCl buffer, pH 7.4, 5 mM Mgcl2, 1 mM Cacl2, 0.2% BSA) as recommended by Milipore. […] Receptor proteins were harvested on 0.33% PEI(poly-ethylenemine) soaked GFC filter mat, the specifically bound [^3H]MK-912 were counted to determine total binding. […]
pKi: −log10 of the molar value.
Rule: pKi under 7 gives N, otherwise Y.

CC(O)(Cn1c2c(c3cc(Cl)cc(F)c31)C1CCCN1CC2)c1ccncc1 (single isomer, unassigned) [52b]
Y
CC(O)(Cn1c2c(c3cc(F)ccc31)C1CCCN1CC2)c1ccncc1 (single isomer, unassigned) [31b]
N
Cc1ccc2c(c1)c1c(n2CC(O)c2ccncc2F)CCN2CCCC12 (single isomer, unassigned) [14b]
Y
OC(Cn1c2c(c3cc(Cl)cc(F)c31)C1CCCN1CC2)c1ccncc1 (single isomer, unassigned) [135b]
Y
CC(O)(Cn1c2c(c3cc(F)ccc31)C1CCCN1CC2)c1ccncc1 (single isomer, unassigned) [31a]
N

Check the entry Cc1ccc2c(c1F)c1c(n2CC(C)(O)c2cccnc2)CCN2CCCC12 (single isomer, unassigned) [87c] : does pKi equal or exceed 7?
Y

Textbook exercise: given the entry Cc1cc(F)c2c(c1)c1c(n2CC(C)(O)c2cccnc2)CCN2CCCC12 (single isomer, unassigned) [79b] , state whether its pKi is greater than or equal to 7.
Y

Has Cc1ccc2c(c1)c1c(n2CC(OC2CCCC2)c2ccncc2)CCN(C)C1 (single isomer, unassigned) [35b] a recorded pKi greater than or equal to 7?
N

---

- tested-on: UniProtKB P08913
- assay-remarks: Radioligand binding, adrenergic α2A (Protocol Group B)
- Parameters: purchased Milipore (Millipore)
- condition-details: 0.1 μM compound; Protocol Group B; 0.1 µM
Use fulfilled when the recorded Percentage inhibition of ligand binding, Adrenergic α2A (0.1 μM) is no lower than 20%; use not fulfilled when it is lower.

Below, 2 compounds whose answers are already recorded.
CC(O)(Cn1c2c(c3cc(Cl)cc(F)c31)CN1CCCC1C2)c1cccnc1 (single isomer, unassigned) [63b]
not fulfilled
Cc1ccc2c(c1)c1c(n2CC(C)(O)c2cccnc2)CC2CCCN2C1 (stereo not drawn) [38d]
not fulfilled

Determine whether measured Percentage inhibition of ligand binding, Adrenergic α2A (0.1 μM) meets or exceeds 20% for Cc1cc(F)c2c(c1)c1c(n2CC(C)(O)c2ccncc2)CC2CCCN2C1 (single isomer, unassigned) [62d]
not fulfilled

Quick check: does Cc1cc(C)c2c(c1)c1c(n2CC(C)(O)c2ccncc2)CCN2CCCC12 (single isomer, unassigned) [19b] have Percentage inhibition of ligand binding, Adrenergic α2A (0.1 μM) greater than or equal to 20%?
fulfilled

Percentage inhibition of ligand binding, Adrenergic α2A (0.1 μM) >= 20% for Cc1cc(F)c2c(c1)c1c(n2CC(C)(O)c2cccnc2)CCN2CCCC12 (single isomer, unassigned) [79c] ?
not fulfilled

Percentage inhibition of ligand binding, Adrenergic α2A (0.1 μM) >= 20% for Cc1cc(F)c2c(c1)c1c(n2CC(C)(O)c2cccnc2)CC2CCCN2C1 (single isomer, unassigned) [61a] ?
not fulfilled

Dear colleague, could you confirm whether Cc1ccc2c(c1F)c1c(n2CC(C)(O)c2cccnc2)CCN2CCCC12 (single isomer, unassigned) [87a] has Percentage inhibition of ligand binding, Adrenergic α2A (0.1 μM) at or above 20%?
not fulfilled

Reported Percentage inhibition of ligand binding, Adrenergic α2A (0.1 μM) reaches at least 20% for Cc1ccc2c(c1)c1c(n2CC(C)(O)c2ccc(N(C)C)nc2)CCN(C)C1 (stereo not drawn) [compound 39] ?
not fulfilled

Does Cc1cc(C)c2c(c1)c1c(n2CC(C)(O)c2ccncc2)CCN2CCCC12 (single isomer, unassigned) [19d] have a reported Percentage inhibition of ligand binding, Adrenergic α2A (0.1 μM) of at least 20%?
not fulfilled

Evaluate Cc1cc(C)c2c(c1)c1c(n2CC(C)(O)c2ccncc2)CCN2CCCC12 (single isomer, unassigned) [19a] : Percentage inhibition of ligand binding, Adrenergic α2A (0.1 μM) at minimum 20%?
fulfilled

Please check the record CC(O)(Cn1c2c(c3cc(Cl)cc(F)c31)CN1CCCC1C2)c1ccncc1 (single isomer, unassigned) [86d] and state if its Percentage inhibition of ligand binding, Adrenergic α2A (0.1 μM) is at or above 20%.
not fulfilled

Does Cc1cc(F)cc2c3c(n(CC(C)(O)c4cccnc4)c12)CCN1CCCC31 (single isomer, unassigned) [75c] have a reported Percentage inhibition of ligand binding, Adrenergic α2A (0.1 μM) of at least 20%?
fulfilled

Does the reported Percentage inhibition of ligand binding, Adrenergic α2A (0.1 μM) for Cc1ccc2c(c1)c1c(n2CC(OCC2CCC2)c2ccncc2)CCN2CCCC12 (single isomer, unassigned) [138d] fall at or above the 20% mark?
not fulfilled

Reported Percentage inhibition of ligand binding, Adrenergic α2A (0.1 μM) at or above 20%? CCOC(Cn1c2c(c3cc(C)ccc31)CN(C)CC2)c1ccncc1 (single isomer, unassigned) [43b]
not fulfilled

Is Percentage inhibition of ligand binding, Adrenergic α2A (0.1 μM) at least 20%? Consider Cc1cc2c3c(n(CC(C)(O)c4ccncc4)c2cc1Cl)CCN1CCCC31 (single isomer, unassigned) [50b]
fulfilled

Reference for the values: patent US20150315188A1
